Test system: Hela cells
Method summary: Transfection of Hela cell line, DNA vectors
Format: cell-based
Cond: 75 ng plasmid DNA, GFP cells / total cells
Classes by Absolute DNA transfection efficiency in Hela cells: low group: < 5%; middle group: ≥ 5% and < 10%; high group: ≥ 10%

- Molecule: "CCCCCCCCCCCCNc1nc(NCCCN2CCN(C)CC2)nc(SCCCCCCCCC)n1 [Compound S9N12D9]"
  Group: "high group"
- Molecule: "CCCCCCCCCCCSc1nc(NCCCCCCCCC)nc(NCCCN2CCN(C)CC2)n1 [Compound S11N9D9]"
  Group: "high group"
- Molecule: "CCCCCCCCCCCCSc1nc(NCCN(CC)CC)nc(SCCCCCCCC)n1 [Compound S8S12D7]"
  Group: "low group"
- Molecule: "CCCCCCCCCCCNc1nc(NCCN2CCCCC2)nc(SCCCCCCCCC)n1 [Compound S9N11D4]"
  Group: "low group"
- Molecule: "CCCCCCCCCCCSc1nc(NCCN(C)C)nc(SCCCCCCCC)n1 [Compound S8S11D1]"
  Group: "low group"
- Molecule: "CCCCCCCCCCCSc1nc(NCCCN2CCN(C)CC2)nc(SCCCCCCCC)n1 [Compound S8S11D9]"
  Group: "middle group"
- Molecule: "CCCCCCCCCCCNc1nc(NCCN2CCN(C)CC2)nc(SCCCCCCCC)n1 [Compound S8N11D5]"
  Group: "high group"
- Molecule: "CCCCCCCCCCCCNc1nc(NCC2CCN(C)CC2)nc(SCCCCCCCC)n1 [Compound S8N12D10]"
  Group: "high group"
- Molecule: "CCCCCCCCCCCCNc1nc(NCCCN2CCOCC2)nc(SCCCCCCCC)n1 [Compound S8N12D8]"
  Group: "middle group"
- Molecule: "CCCCCCCCCCCNc1nc(NCC2CCN(C)CC2)nc(SCCCCCCCCC)n1 [Compound S9N11D10]"
  Group: "high group"
- Molecule: "CCCCCCCCCCCCSc1nc(NCCN(C)C)nc(SCCCCCCCC)n1 [Compound S8S12D1]"
  Group: "middle group"
- Molecule: "CCCCCCCCCCCCNc1nc(NCCN2CCN(C)CC2)nc(SCCCCCCCC)n1 [Compound S8N12D5]"
  Group: "high group"
- Molecule: "CCCCCCCCCCCSc1nc(NCCN2CCCCC2)nc(SCCCCCCCC)n1 [Compound S8S11D4]"
  Group: "low group"
- Molecule: "CCCCCCCCCCCNc1nc(NCCCN2CCOCC2)nc(SCCCCCCCC)n1 [Compound S8N11D8]"
  Group: "middle group"
- Molecule: "CCCCCCCCCCCCSc1nc(NCCN2CCCCC2)nc(SCCCCCCC)n1 [Compound S7S12D4]"
  Group: "low group"
- Molecule: "CCCCCCCCCCCSc1nc(NCCCN2CCOCC2)nc(SCCCCCCC)n1 [Compound S7S11D8]"
  Group: "middle group"

----------
Tested on: HEK293 cells
Method summary: Preliminary screening as mRNA vectors, EGFP mRNA transfection of HEK293 cells
Type: cell-based
Cond: HEK293 cells, 96-well plates, EGFP mRNA 50 ng per well; percentage of GFP fluorescent cells relative to total number of cells (Hoechst)
Reported endpoint: Absolute mRNA transfection efficiency in HEK293 cells (%)

- Query smiles: "CCCCCCCCCCCCCCCCSc1nc(NCCN2CCCCC2)nc(SCCCCCCCCCCCCCCC)n1"
  Target or test system: "HEK293 cells"
  Result: 3.2
- Query smiles: "CCCCCCCCCCCCCCCCCCNc1nc(NCCCCCCCCCCC)nc(NCCN2CCOCC2)n1"
  Target or test system: "HEK293 cells"
  Result: 0.8
- Query smiles: "CCCCCCCCCCCCCCCCSc1nc(NCCN2CCOCC2)nc(SCCCCCCCCCCCC)n1"
  Target or test system: "HEK293 cells"
  Result: 0.0
- Query smiles: "CCCCCCCCCCCCCCCCNc1nc(NCCCCCCCCCCCCCCC)nc(NCCCN(C)C)n1"
  Target or test system: "HEK293 cells"
  Result: 1.3
- Query smiles: "CCCCCCCCCCCNc1nc(NCCCCCCC)nc(NCCCN(C)C)n1"
  Target or test system: "HEK293 cells"
  Result: 1.5
- Query smiles: "CCCCCCCCCCCCNc1nc(NCCCCCCCCCCC)nc(NCCCN2CCOCC2)n1"
  Target or test system: "HEK293 cells"
  Result: 2.8
- Query smiles: "CCCCCCCCCCCCCCCCCCSc1nc(NCCN2CCCCC2)nc(SCCCCCCCCCCCCCCCC)n1"
  Target or test system: "HEK293 cells"
  Result: 0.3
- Query smiles: "CCCCCCCCNc1nc(NCCCCCCC)nc(NCCCN(C)C)n1"
  Target or test system: "HEK293 cells"
  Result: 0.0

----------
System: HEK293 cells
Method summary: Preliminary screening as DNA vectors, GFP transfection of HEK293 cells
Assay type: cell-based
Cond: amino lipid/DOPE liposome with 75 ng plasmid DNA (psin-EGFP-IRES-Puro); number of GFP-expressing cells divided by total nuclei (Hoechst)
Reported endpoint: Absolute DNA transfection efficiency in HEK293 cells (%)

- Molecule: "CCCCCCCCCCCCCCCCSc1nc(NCCN2CCCC2)nc(SCCCCCCC)n1 [S7S16 D3]"
  Target or test system: "HEK293 cells"
  Result: 6.3
- Molecule: "CCCCCCCCCCCCCCCCNc1nc(NCC2CCN(C)CC2)nc(SCCCCCC)n1 [S6N16 D10]"
  Target or test system: "HEK293 cells"
  Result: 19.7
- Molecule: "CCCCCCCCCCCCCCCCSc1nc(NCCCCCCCCCCCCC)nc(NCCCN2CCOCC2)n1 [S16N13 D8]"
  Target or test system: "HEK293 cells"
  Result: 0.2
- Molecule: "CCCCCCCCCCCCSc1nc(NCCCCCCC)nc(NCCCN2CCOCC2)n1 [S12N7 D8]"
  Target or test system: "HEK293 cells"
  Result: 0.3
- Molecule: "CCCCCCCCNc1nc(NCCN2CCOCC2)nc(SCCCCCCCC)n1 [S8N8 D2]"
  Target or test system: "HEK293 cells"
  Result: 1.5
- Molecule: "CCCCCCCCCNc1nc(NCCN2CCOCC2)nc(SCCCCCCC)n1 [S7N9 D2]"
  Target or test system: "HEK293 cells"
  Result: 13.9
- Molecule: "CCCCCCCCSc1nc(NCCCCCC)nc(NCC2CCN(C)CC2)n1 [S8N6 D10]"
  Target or test system: "HEK293 cells"
  Result: 0.5
- Molecule: "CCCCCCCCCCCCNc1nc(NCCCN2CCN(C)CC2)nc(SCCCCCCCC)n1 [S8N12 D9]"
  Target or test system: "HEK293 cells"
  Result: 48.3
- Molecule: "CCCCCCCCCCCCSc1nc(NCCN2CCCC2)nc(SCCCCCCC)n1 [S7S12 D3]"
  Target or test system: "HEK293 cells"
  Result: 9.9
- Molecule: "CCCCCCCCCCCSc1nc(NCCN(C)C)nc(SCCCCCC)n1 [S6S11 D1]"
  Target or test system: "HEK293 cells"
  Result: 6.0
- Molecule: "CCCCCCCCCCCCCCCNc1nc(NCCN(C)C)nc(SCCCCCCC)n1 [S7N15 D1]"
  Target or test system: "HEK293 cells"
  Result: 19.5
- Molecule: "CCCCCCCCCCCCCCCNc1nc(NCCCN2CCOCC2)nc(SCCCCCCCCCCCCCC)n1 [S14N15 D8]"
  Target or test system: "HEK293 cells"
  Result: 0.3
- Molecule: "CCCCCCCCCCCCCCSc1nc(NCCCCCCCCCCC)nc(NCCN2CCCCC2)n1 [S14N11 D4]"
  Target or test system: "HEK293 cells"
  Result: 3.1
- Molecule: "CCCCCCCCCCCCCCCCSc1nc(NCCCCCC)nc(NCCCN2CCN(C)CC2)n1 [S16N6 D9]"
  Target or test system: "HEK293 cells"
  Result: 9.6
- Molecule: "CCCCCCCCCCCCCCSc1nc(NCCCN(C)C)nc(SCCCCCC)n1 [S6S14 D6]"
  Target or test system: "HEK293 cells"
  Result: 21.9
- Molecule: "CCCCCCCCCCCCCCCCSc1nc(NCCN2CCN(C)CC2)nc(SCCCCCCC)n1 [S7S16 D5]"
  Target or test system: "HEK293 cells"
  Result: 7.9
- Molecule: "CCCCCCCCCCCCCCCCCCSc1nc(NCCCCCCCCCCC)nc(NCCCN(C)C)n1 [S18N11 D6]"
  Target or test system: "HEK293 cells"
  Result: 5.2
- Molecule: "CCCCCCCCCCCCCNc1nc(NCCN2CCN(C)CC2)nc(SCCCCCCCCCCCC)n1 [S12N13 D5]"
  Target or test system: "HEK293 cells"
  Result: 1.5
